# Test system: PPARg homodimer (NR concentration 180 nM)
# EXPERIMENTAL_PROTOCOL: PBM binding z-score (relative to random genomic background probes); higher = stronger binding; sequences stand for … in GC…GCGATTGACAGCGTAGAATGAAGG
If the reported PBM binding z-score equals or exceeds 2, assign MET. If not, assign NOT MET.

Threshold query (PBM binding z-score >= 2) on "TCTGCTAGGTCAGTTGGGCAGCTAACGAGCTGCC"
NOT MET

Threshold query (PBM binding z-score >= 2) on "TCATATAGGTTAAAGGTGAAAGTCGGTGTGGTAA"
MET

Threshold query (PBM binding z-score >= 2) on "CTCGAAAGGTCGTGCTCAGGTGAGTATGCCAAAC"
NOT MET

Threshold query (PBM binding z-score >= 2) on "CGAACTAGGTCACCAGGACAGTGAGGAGGTTGGA"
NOT MET

Threshold query (PBM binding z-score >= 2) on "ATATATAGGTTAGGGTCATTCAGAAAGTAGGGAA"
MET

Threshold query (PBM binding z-score >= 2) on "ACTAGTAGGCCAAGGGTCACTCAAGATTAGTCCG"
MET

Threshold query (PBM binding z-score >= 2) on "CGTCCAAGGTCAAGGTCACTGAAAGAGACTCGAA"
MET

Threshold query (PBM binding z-score >= 2) on "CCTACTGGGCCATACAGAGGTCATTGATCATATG"
MET

Threshold query (PBM binding z-score >= 2) on "CTATGTAGGTTAAAGGGGTCATTCAGTTTGAAAG"
MET

Threshold query (PBM binding z-score >= 2) on "TCGAGAAGGTTACGGGGGCATTCAGGGATGAAGA"
NOT MET

Threshold query (PBM binding z-score >= 2) on "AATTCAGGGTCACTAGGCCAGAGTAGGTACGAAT"
MET

Threshold query (PBM binding z-score >= 2) on "TCGAGTAGGTTACGGGGGCATTCAGGGATGAAGA"
NOT MET

----------
# Test system: LXRb homodimer (NR concentration 270 nM)
# EXPERIMENTAL_PROTOCOL: PBM binding z-score (relative to random genomic background probes); higher = stronger binding; sequences stand for … in GC…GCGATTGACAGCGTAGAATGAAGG
If the reported PBM binding z-score equals or exceeds 1, assign label 1. If not, assign label 0.

Threshold query (PBM binding z-score >= 1) on "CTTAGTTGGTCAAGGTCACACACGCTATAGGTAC"
label 1

---
Threshold query (PBM binding z-score >= 1) on "ACTAGTTGGTCAGCTGGGGTCACACACAATTCGG"
label 0

----------
# System: THRa:RXRa (NR concentration 90 nM, RXRa partner concentration 90 nM)
# EXPERIMENTAL_PROTOCOL: PBM binding z-score (relative to random genomic background probes); higher = stronger binding; sequences stand for … in GC…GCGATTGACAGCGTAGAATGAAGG
If the reported PBM binding z-score equals or exceeds 3, assign yes. If not, assign no.

Use these answered entries as a reference point.
Threshold query (PBM binding z-score >= 3) on "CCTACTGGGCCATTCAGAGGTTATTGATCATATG"
no

Threshold query (PBM binding z-score >= 3) on "CTATGTAGGTTTAGGGGGTCATTCAGTTTGAAAG"
yes

---
Threshold query (PBM binding z-score >= 3) on "TGGCCTAGGTCATGGGCCAGTATACCACGCGAAC"
no

Threshold query (PBM binding z-score >= 3) on "TCTAGTTGGTCGCGGAGGTCACACACGACGGGTA"
yes

Threshold query (PBM binding z-score >= 3) on "CCTACTGGGCGACGAAAGGTCATTGATTCAGTGA"
yes

Threshold query (PBM binding z-score >= 3) on "AGAATGAGGTTAAGATTAGGGAAACAGAATACAT"
no

----------
# System: PPARg:RXRa (NR concentration 180 nM, RXRa partner concentration 90 nM)
# EXPERIMENTAL_PROTOCOL: PBM binding z-score (relative to random genomic background probes); higher = stronger binding; sequences stand for … in GC…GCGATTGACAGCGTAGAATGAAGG
If the reported PBM binding z-score equals or exceeds 2, assign Y. If not, assign N.

Threshold query (PBM binding z-score >= 2) on "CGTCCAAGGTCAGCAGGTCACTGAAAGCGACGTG"
Y

Threshold query (PBM binding z-score >= 2) on "TCTAGTTGGTGACGGAGGTCACACACGACGGGTA"
Y

Threshold query (PBM binding z-score >= 2) on "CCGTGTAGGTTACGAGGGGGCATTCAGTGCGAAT"
Y

Threshold query (PBM binding z-score >= 2) on "CCGAGTAGGCTACGAGGGGGCATTCAGTGCGAAT"
N

Threshold query (PBM binding z-score >= 2) on "CGAACTAGGTAAAGGACAGTGAATCTCCGCACGC"
N

Threshold query (PBM binding z-score >= 2) on "CGAACTAGGTCAAAGGACAGCGAAAGGCGACGTA"
Y

Threshold query (PBM binding z-score >= 2) on "ATATGTAGGTTACATCCGGGTCTTTCAGGCTATG"
Y

Threshold query (PBM binding z-score >= 2) on "ATTTGTAGGTTATCGGGTCATTCAGTTTGCGCAT"
Y

---
Threshold query (PBM binding z-score >= 2) on "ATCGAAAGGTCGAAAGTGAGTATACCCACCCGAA"
Y

Threshold query (PBM binding z-score >= 2) on "CCTACTGGGCCAAGGTCATTGACCAGTCAAAGCA"
Y

Threshold query (PBM binding z-score >= 2) on "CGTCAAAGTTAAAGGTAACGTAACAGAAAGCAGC"
N

Threshold query (PBM binding z-score >= 2) on "CCTACAGGGCCAAAGGTCATTGATTCCAATGCTC"
Y

Threshold query (PBM binding z-score >= 2) on "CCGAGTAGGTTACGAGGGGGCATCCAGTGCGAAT"
Y

Threshold query (PBM binding z-score >= 2) on "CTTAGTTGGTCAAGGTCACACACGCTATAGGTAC"
Y

----------
# Test system: PPARg:RXRa (NR concentration 180 nM, RXRa partner concentration 90 nM)
# EXPERIMENTAL_PROTOCOL: PBM binding z-score (relative to random genomic background probes); higher = stronger binding; sequences stand for … in GC…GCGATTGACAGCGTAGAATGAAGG
PROPERTY_MEASURED: PBM binding z-score
The reply should be a number, written without any unit.

Some sequences with known PBM binding z-score results, for comparison:
Returns the measured PBM binding z-score for the input sequence. Input: "TGGAGTAGGTTACGGGGGCATTCAGGGATGAAGA"
7.46

Returns the measured PBM binding z-score for the input sequence. Input: "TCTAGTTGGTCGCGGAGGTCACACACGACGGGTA"
2.02

Returns the measured PBM binding z-score for the input sequence. Input: "TGACTGAGGTTAAAGATCAGGGAACGTGGCGTCG"
3.09

Returns the measured PBM binding z-score for the input sequence. Input: "TCGAGTAGGTTACGGTGGCATTCAGGGATGAAGA"
1.73

---
Returns the measured PBM binding z-score for the input sequence. Input: "CCTACTGGGCCAAGGTCATTGAGCAGTCAAAGCA"
4.27

Returns the measured PBM binding z-score for the input sequence. Input: "CGTCCAAGGGCAATGCTAGGTCAGTGAAAGCATT"
-0.00472

Returns the measured PBM binding z-score for the input sequence. Input: "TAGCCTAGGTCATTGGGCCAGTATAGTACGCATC"
3.56

----------
PBM binding z-score listing for selected sequences.
# Tested on: VDR:RXRa (NR concentration 270 nM, RXRa partner concentration 90 nM)
# EXPERIMENTAL_PROTOCOL: PBM binding z-score (relative to random genomic background probes); higher = stronger binding; sequences stand for … in GC…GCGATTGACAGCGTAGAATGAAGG
The reply should be a number, written without any unit.

Returns the measured PBM binding z-score for the input sequence. Input: "CGAAGTAGGTCAAAGGACAGTGAAAGGCGACGTA"
1.9

Returns the measured PBM binding z-score for the input sequence. Input: "CGAACTAGCTCAAAGGACAGTGAAAGGCGACGTA"
-0.564

Returns the measured PBM binding z-score for the input sequence. Input: "CATCCAAGGTCAAAGGTCAGTGAAGAGATGACGG"
6.71

Returns the measured PBM binding z-score for the input sequence. Input: "CTATCTAGGTTAAGGGGGTCATTCAGTTTGAAAG"
7.51

Returns the measured PBM binding z-score for the input sequence. Input: "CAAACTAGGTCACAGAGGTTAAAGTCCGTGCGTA"
6.72

Returns the measured PBM binding z-score for the input sequence. Input: "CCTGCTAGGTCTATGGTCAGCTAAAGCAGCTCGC"
-0.536
